- METHOD SUMMARY: NCI Yeast Anticancer Drug Screen. Data for the bub3 strain (AID 167)
- ASSAY SETUP: S. cerevisiae bub3 mutant strain, at 50.0 µM
This is part of a sample that, as a whole, favours compounds with a hit. Of some 79,000 tested, about 15% had one in any assay. The source made the active and inactive calls. Cut-off read from the data, not from the text of the source: active = growth inhibition above about 70%; inactive = the rest.
Hi there, use one of these labels in your reply, thanks! Y = active, N = inactive

Input: What classification did COc1cc(/C=C2/N=C(c3ccccc3)N(C3=NNC4(C(=O)N3)c3ccccc3-c3ccccc34)NC2=O)ccc1O end up with in this test?
Output: N

Input: Would you kindly repeat that for CC1=CC(O)(c2nc3ccccc3s2)CC(C)(C)C1 (centres undefined) ?
Output: N

Input: Would you kindly repeat that for CC(=O)N=C1N(/C=C2\C(=O)Oc3ccccc3C2=O)C(=O)/C(=C/c2ccc(Cl)cc2Cl)N1C ?
Output: Y

Input: Would you kindly repeat that for NC(=S)SCCC(=O)O ?
Output: N

Input: Would you kindly repeat that for CCOP(=O)(OCC)C(=C1C=C(C(C)(C)C)C(=O)C(C(C)(C)C)=C1)P(=O)(OCC)OCC ?
Output: Y

Input: Would you kindly repeat that for CO[C@H]1C[C@@H]2CC[C@@H](C)[C@@](O)(O2)C(=O)C(=O)N2CCCC[C@H]2C(=O)O[C@H]([C@H](C)C[C@@H]2CC[C@@H](OC(=O)C(C)(CO)CO)[C@H](OC)C2)CC(=O)[C@H](C)/C=C(\C)[C@@H](O)[C@@H](OC)C(=O)[C@H](C)C[C@H](C)/C=C/C=C/C=C/1C ?
Output: Y

Input: Would you kindly repeat that for CCC[CH2][Sn]([Cl])([CH2]CCC)[S]/C(C#N)=N/N=C/c1ccc(N(C)C)cc1 ?
Output: Y

Input: Would you kindly repeat that for O=C(Nc1c(Cl)cccc1Cl)OCc1ccc2c(c1)OCO2 ?
Output: N

Input: Would you kindly repeat that for NC(=O)C(=CNc1nc(-c2ccc(Br)cc2)cs1)C(N)=O ?
Output: Y

Input: Would you kindly repeat that for COc1ccc(/C=C/c2ccnc3ccccc23)cc1 ?
Output: Y

Input: Would you kindly repeat that for CCCC(=O)c1ccc(OC)cc1 ?
Output: N

Input: Would you kindly repeat that for COc1ccc2nc3cc(Cl)ccc3c(NCCCCN(C)C)c2c1 ?
Output: N

Input: Would you kindly repeat that for O=C1C=CC(=O)c2cc(Sc3ccccc3)c(=O)ccc21 ?
Output: N

Input: Would you kindly repeat that for COc1ccccc1C1c2cc3c(cc2OC(C)(O)C1C)OCO3 (centres undefined) ?
Output: N

Input: Would you kindly repeat that for N#CS/C(Cl)=C(/C(Cl)=C(Cl)Cl)[N+](=O)[O-] ?
Output: Y

Input: Would you kindly repeat that for O=[N+]([O-])c1cccc2c[n+](Cc3ccccc3)ccc12 ?
Output: N

Input: Would you kindly repeat that for Cc1cc(/C=N/Nc2ccc3cccc(O)c3n2)c(O)c2ncccc12 ?
Output: Y

Input: Would you kindly repeat that for O=C(SCCCc1ccccc1)c1cc([N+](=O)[O-])cc([N+](=O)[O-])c1 ?
Output: N

Input: Would you kindly repeat that for COc1cccc(C2c3cc4c(cc3OC(N3CCOCC3)C2C)OCO4)c1 (centres undefined) ?
Output: N

Input: Would you kindly repeat that for CCCCCCCCCCCCCCCCNC(C)c1ccccc1 (centres undefined) ?
Output: Y

Input: Would you kindly repeat that for CCC1C(c2ccccc2O)c2cc3c(cc2OC1N1CCOCC1)OCO3 (centres undefined) ?
Output: Y

Input: Would you kindly repeat that for Oc1ccc(C/C=C/c2ccccc2)cc1O ?
Output: Y

Input: Would you kindly repeat that for CN(C)C1CCC2C3CCC4=CC(=O)CCC4(C)C3CCC21C (centres undefined) ?
Output: N

Input: Would you kindly repeat that for CC(=O)Oc1ccc(C)cc1C(C)(C)C ?
Output: N

Input: Would you kindly repeat that for S=c1sc2c(s1)SCCOCCOCCOCCS2 ?
Output: N

Input: Would you kindly repeat that for Nc1ccc(S(=O)(=O)C23CC4CC(CC(C4)C2)C3)cc1 ?
Output: Y

Input: Would you kindly repeat that for CCOC(=O)CCC(=O)Oc1ccc2c(c1OC(=O)CCC(=O)OCC)C(=O)c1ccccc1C2=O ?
Output: N

Input: Would you kindly repeat that for COc1cc(CCN=Cc2cc(Cl)cc(Cl)c2O)c([N+](=O)[O-])cc1OC ?
Output: Y

Input: Would you kindly repeat that for O=C1C(=O)c2ccccc2C=C1C1CCCCC1 ?
Output: N
